Tested on: 885724-159-R-J1-PDC complex spheroid viability;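 note: spheroids exposed to agents for seven days before readout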
test_protocol: Anticancer human tumor 885724-159-R-J1-PDC patient-derived pancreatic adenocarcinoma cell line growth inhibition [GQUAD]
protocol_conditions: curve of first compound; second compound 0.0316 µM
Description: DNA G-quadruplex Stabilizer Agents in Combinations in Complex Spheroids A high-throughput screen of multi-cell type tumor spheroids was designed to identify active combinations of DNA G-quadruplex stabilizer agents and targeted small molecules. […] Compounds. […] If the clinical Cmax for an agent had not been determined, the highest concentration tested was 10 microM. […]
pIC50: −log10 of the molar value.
Give measured pIC50 for each item. Keep answers brief.

The reported value for Cn1ncnc1[C@H]1c2n[nH]c(=O)c3cc(F)cc(c23)N[C@@H]1c1ccc(F)cc1 + CN(C)c1ccc(Nc2c3ccc(NC(=O)CCN4CCCC4)cc3nc3cc(NC(=O)CCN4CCCC4)ccc23)cc1 in terms of pIC50 is < 6.50

The reported value for O=C(c1cc(Cc2n[nH]c(=O)c3ccccc23)ccc1F)N1CCN(C(=O)C2CC2)CC1 + CN(C)c1ccc(Nc2c3ccc(NC(=O)CCN4CCCC4)cc3nc3cc(NC(=O)CCN4CCCC4)ccc23)cc1 in terms of pIC50 is < 5.00

The reported value for CC(C)(O)C1CCC(Nc2ccc3ncc(-c4cccc(C(F)(F)F)c4)n3n2)CC1 (stereo not drawn) + Cc1cnc(CNC(=O)c2c(=O)c3ccc(N4CCCN(C)CC4)nc3n3c2sc2ccccc23)cn1 in terms of pIC50 is 5.50
